# assay_target: recombinant human plasminogen activator inhibitor-1 (PAI-1) (Homo sapiens, UniProt P05121)
# Construct: purchased Molecular Innovations, Royal Oak, Mich
# Sequence (P05121 24-402): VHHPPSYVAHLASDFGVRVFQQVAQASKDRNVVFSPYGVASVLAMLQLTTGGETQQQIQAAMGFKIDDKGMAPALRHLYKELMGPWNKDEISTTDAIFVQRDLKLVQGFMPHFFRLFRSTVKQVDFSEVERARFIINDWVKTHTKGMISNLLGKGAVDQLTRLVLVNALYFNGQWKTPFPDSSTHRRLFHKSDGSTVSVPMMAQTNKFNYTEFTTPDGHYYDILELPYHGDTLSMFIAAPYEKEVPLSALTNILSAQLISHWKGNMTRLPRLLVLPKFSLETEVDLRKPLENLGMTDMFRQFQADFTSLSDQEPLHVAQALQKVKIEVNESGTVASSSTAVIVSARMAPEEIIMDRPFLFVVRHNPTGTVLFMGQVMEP
# test: Screening for PAI-1 inhibition (residual tPA activity, Spectrozyme-tPA chromogenic substrate)
# Format: biochemical
# test_context: test compound at 100 Um; pH 6.6 buffer, 140 nM PAI-1, 70 nM tPA
reported_endpoint: inhibition at 100 µM (%)

[
  {
    "molecule": "CC(C)(C)c1ccc(COc2cccc(-c3cccc(/C=N/OCC(=O)O)c3)c2)cc1",
    "reported_endpoint": "inhibition at 100 µM",
    "quantitative_readout": 63
  }
]

(P) C#CCn1cc(/C=N/OCC(=O)O)c2cc(OCc3ccc(C(C)(C)C)cc3)ccc21
(Q) O=C(O)CO/N=C/c1cccc(C#CCOc2cccc(Cl)c2)c1
Return label of the item with the larger inhibition at 100 µM. Candidates: P , Q . Identify your selection by its label.
P
(P: 91%, Q: 44%)

(A) Cn1cc(/C=N/OCC(=O)O)c2cc(OCc3cccc(Cl)c3)ccc21
(B) Cc1ccc(COc2ccc(/C=N/OCC(=O)O)cc2OCc2ccc(C)cc2)cc1
When the recorded inhibition at 100 µM values are compared, which is smaller: that of A or that of B ? Respond using the label that marks the chosen record.
A
(A: 48%, B: 78%)

====

# assay_target: recombinant human plasminogen activator inhibitor-1 (PAI-1) (Homo sapiens)
# Construct: purchased Molecular Innovations, Royal Oak, Mich
# test: Screening for PAI-1 inhibition (residual tPA activity, Spectrozyme-tPA chromogenic substrate)
# Type: biochemical
# test_context: test compound at 100 Um; pH 6.6 buffer, 140 nM PAI-1, 70 nM tPA
reported_endpoint: inhibition at 100 µM (%)

Use the examples below as a reference point.
[
  {
    "compound": "O=C(O)CO/N=C/c1cccc(-c2ccc(OCc3cccc(Br)c3)cc2)c1 [Compound 77]",
    "inhibition at 100 µM / %": 85
  },
  {
    "compound": "CC(C)(C)c1ccc(COc2ccc(/C=N/OCC(=O)O)c(OCc3ccc(C(C)(C)C)cc3)c2)cc1 [Compound 126]",
    "inhibition at 100 µM / %": 77
  }
]

(A) O=C(O)CO/N=C/c1cccc(OCc2cccc(Br)c2)c1OCc1cccc(Br)c1 [Compound 137]
(B) C=CCn1cc(/C=N/OCC(=O)O)c2cc(OCc3ccccc3)ccc21 [Compound 40]
(C) Cc1ccc(COc2ccc(-c3ccc(/C=N/OCC(=O)O)cc3)cc2)cc1 [Compound 109]
Rank items: key inhibition at 100 µM, increasing. Give the order by naming the labels one after another as requested.
C, B, A

====

# assay_target: recombinant human plasminogen activator inhibitor-1 (PAI-1) (Homo sapiens, UniProt P05121)
# Construct: purchased Molecular Innovations, Royal Oak, Mich
# test: Screening for PAI-1 inhibition (residual tPA activity, Spectrozyme-tPA chromogenic substrate)
# Format: biochemical
# test_context: test compound at 100 Um; pH 6.6 buffer, 140 nM PAI-1, 70 nM tPA
reported_endpoint: inhibition at 100 µM (%)

// worked examples, inhibition at 100 µM included
[
  {
    "molecule": "O=C(O)CO/N=C/c1cccc(-c2cccc(OCc3cc(C(F)(F)F)cc(C(F)(F)F)c3)c2)c1",
    "assay_target": "recombinant human plasminogen activator inhibitor-1 (PAI-1) (Homo sapiens, UniProt P05121)",
    "inhibition at 100 µM [%]": 74
  },
  {
    "molecule": "O=C(O)CO/N=C/c1cccc(OCc2ccc(C(F)(F)F)cc2)c1OCc1ccc(C(F)(F)F)cc1",
    "assay_target": "recombinant human plasminogen activator inhibitor-1 (PAI-1) (Homo sapiens, UniProt P05121)",
    "inhibition at 100 µM [%]": 100
  }
]

(A) CC(C)(C)c1ccc(COc2ccc3c(c2)c(/C=N/OCC(=O)O)cn3Cc2ccccc2)cc1
(B) Cc1cccc(COc2ccc3c(c2)c(/C=N/OCC(=O)O)cn3Cc2ccccc2)c1
Which of these two has the smaller recorded inhibition at 100 µM: A or B ? Label of pick, please.
A
(A: 68%, B: 99%)

(P) O=C(O)CO/N=C/c1cc(OCc2cccc(Br)c2)ccc1OCc1cccc(Br)c1
(Q) CC(C)(C)c1ccc(COc2ccc(-c3cccc(/C=N/OCC(=O)O)c3)cc2)cc1
(R) Cc1cccc(COc2ccc(-c3ccc(/C=N/OCC(=O)O)cc3)cc2)c1
Give the ascending ranking of the items by reported inhibition at 100 µM. Rank the items, then write their labels in that order.
R, Q, P
(R: 6%, Q: 34%, P: 69%)

(a) O=C(O)CO/N=C/c1cn(Cc2ccccc2)c2ccc(OCc3ccc4ccccc4c3)cc12
(b) O=C(O)CO/N=C/c1cc(OCc2ccc(F)c(F)c2)ccc1OCc1ccc(F)c(F)c1
(c) O=C(O)CO/N=C/c1cccc(-c2ccc(OCc3ccc(Cl)cc3)cc2)c1
# desc sort on inhibition at 100 µM across 3 compounds Answer by writing out the labels in the requested order.
b, a, c
(b: 92%, a: 62%, c: 28%)

====

# assay_target: recombinant human plasminogen activator inhibitor-1 (PAI-1) (Homo sapiens, UniProt P05121)
# Construct: purchased Molecular Innovations, Royal Oak, Mich
# test: Screening for PAI-1 inhibition (residual tPA activity, Spectrozyme-tPA chromogenic substrate)
# Assay type: biochemical
# test_context: test compound at 100 Um; pH 6.6 buffer, 140 nM PAI-1, 70 nM tPA
reported_endpoint: inhibition at 100 µM (%)

[
  {
    "molecule": "CCn1cc(/C=N/OCC(=O)O)c2cc(OCc3cc(C(F)(F)F)cc(C(F)(F)F)c3)ccc21",
    "inhibition at 100 µM [%]": 71
  }
]

(1) O=C(O)CO/N=C/c1c[nH]c2ccc(OCc3ccccc3Cl)cc12
(2) CC(C)(C)c1ccc(COc2cccc(-c3ccc(/C=N/OCC(=O)O)cc3)c2)cc1
(3) O=C(O)CO/N=C/c1ccc(OCc2ccc(F)c(F)c2)cc1OCc1ccc(F)c(F)c1
Hey, can you sort those molecules up there by inhibition at 100 µM, smallest first? Put the labels in the requested order and write them down.
1, 2, 3

====

# assay_target: recombinant human plasminogen activator inhibitor-1 (PAI-1) (Homo sapiens, UniProt P05121)
# Construct: purchased Molecular Innovations, Royal Oak, Mich
# test: Screening for PAI-1 inhibition (residual tPA activity, Spectrozyme-tPA chromogenic substrate)
# Assay type: biochemical
# test_context: test compound at 100 Um; pH 6.6 buffer, 140 nM PAI-1, 70 nM tPA
reported_endpoint: inhibition at 100 µM (%)

(I) O=C(O)CO/N=C/c1cc(OCc2ccc(F)c(F)c2)cc(OCc2ccc(F)c(F)c2)c1
(II) C#CCn1cc(/C=N/OCC(=O)O)c2cc(OCc3cc(C(F)(F)F)cc(C(F)(F)F)c3)ccc21
(III) O=C(O)CO/N=C/c1cccc(OCc2ccc(F)cc2)c1OCc1ccc(F)cc1
Arrange the items listed above so that inhibition at 100 µM rises from first to last. Form field (ranking): labels in requested order.
III, II, I

====

# assay_target: recombinant human plasminogen activator inhibitor-1 (PAI-1) (Homo sapiens)
# Construct: purchased Molecular Innovations, Royal Oak, Mich
# test: Screening for PAI-1 inhibition (residual tPA activity, Spectrozyme-tPA chromogenic substrate)
# Assay type: biochemical
# test_context: test compound at 100 Um; pH 6.6 buffer, 140 nM PAI-1, 70 nM tPA
reported_endpoint: inhibition at 100 µM (%)

[
  {
    "molecule": "O=C(O)CO/N=C/c1cc(OCc2ccc(C(F)(F)F)cc2)ccc1OCc1ccc(C(F)(F)F)cc1",
    "inhibition at 100 µM, %": 91
  },
  {
    "molecule": "Cc1cccc(COc2ccc(/C=N/OCC(=O)O)c(OCc3cccc(C)c3)c2)c1",
    "inhibition at 100 µM, %": 90
  },
  {
    "molecule": "CC(C)Cc1ccc(OCC#Cc2cccc(/C=N/OCC(=O)O)c2)cc1",
    "inhibition at 100 µM, %": 56
  },
  {
    "molecule": "O=C(O)CO/N=C/c1cc(OCc2ccc(F)cc2)cc(OCc2ccc(F)cc2)c1",
    "inhibition at 100 µM, %": 95
  },
  {
    "molecule": "O=C(O)CO/N=C/c1ccc(-c2ccc(OCc3cccc(Br)c3)cc2)cc1",
    "inhibition at 100 µM, %": 62
  },
  {
    "molecule": "C#CCn1cc(/C=N/OCC(=O)O)c2cc(OCc3ccccc3Cl)ccc21",
    "inhibition at 100 µM, %": 79
  }
]

====

# assay_target: recombinant human plasminogen activator inhibitor-1 (PAI-1) (Homo sapiens, UniProt P05121)
# Construct: purchased Molecular Innovations, Royal Oak, Mich
# test: Screening for PAI-1 inhibition (residual tPA activity, Spectrozyme-tPA chromogenic substrate)
# Assay type: biochemical
# test_context: test compound at 100 Um; pH 6.6 buffer, 140 nM PAI-1, 70 nM tPA
# Protocol: Screening for PAI-1 inhibition. Test compounds are dissolved in DMSO at a final concentration of 10 Mm, then diluted 100× in physiologic buffer. […] Following the second incubation, Spectrozyme-Tpa (American Diagnostica, Greenwich, Conn.), a chromogenic substrate for Tpa, is added and absorbance read at 405 nm at 0 and 60 minutes. […]
reported_endpoint: inhibition at 100 µM (%)

(A) O=C(O)CO/N=C/c1cccc(-c2cccc(OCc3ccccc3Cl)c2)c1 [Compound 67]
(B) O=C(O)CO/N=C/c1ccc(-c2cccc(OCc3cc(C(F)(F)F)cc(C(F)(F)F)c3)c2)cc1 [Compound 90]
Which record would sort first by descending inhibition at 100 µM, A or B ? Write down the label attached to your selection.
A

(I) O=C(O)CO/N=C/c1ccc(OCc2cccc(Cl)c2)cc1OCc1cccc(Cl)c1 [Compound 127]
(II) Cn1cc(/C=N/OCC(=O)O)c2cc(OCc3ccc(Cl)cc3)ccc21 [Compound 47]
Kindly identify which of I and II has the larger recorded inhibition at 100 µM value. Pick one and reply with its label.
I

(P) O=C(O)CO/N=C/c1cccc(-c2cccc(OCc3ccccc3)c2)c1 [Compound 64]
(Q) CCn1cc(/C=N/OCC(=O)O)c2cc(OCc3ccc(Br)cc3)ccc21 [Compound 8]
Would you mind telling me which has the lower recorded inhibition at 100 µM between P and Q ? Kindly state the label of the option you pick.
Q
(Q: 63%, P: 92%)
